- Test system: Klebsiella pneumoniae
- experiment-summary: Antibiofilm activity against carbapenem-resistant Klebsiella pneumoniae assessed as disruption of biofilm at 200 ug/ml after 24 hrs by crystal violet staining based ELISA relative to control
- Format: functional
recorded-endpoint: inhibition at 200 µg/mL
Write the quantity with the unit trailing the number.

Tell me the measured inhibition at 200 µg/mL of Cc1cccc2c3c([nH]c12)C(=C(/C#N)C(N)=O)/C(=C/c1cccs1)CC3 , please. 12%

Tell me the measured inhibition at 200 µg/mL of Cc1ccc2c3c([nH]c2c1)C(=C(/C#N)C(N)=O)/C(=C/c1ccccc1)CC3 , please. 14%

---

- Test system: Pseudomonas aeruginosa
- experiment-summary: Antibiofilm activity against carbenicillin-resistant Pseudomonas aeruginosa assessed as disruption of biofilm at 200 ug/ml after 24 hrs by crystal violet staining based ELISA relative to control
- Format: functional
Classify by measured inhibition at 200 µg/mL: 1 if it is equal to or exceeds 20%, -1 if it is smaller.

I'd appreciate it if you could say whether Cc1ccc2[nH]c3c(c2c1)CCC(=C\c1cccc(Br)c1)/C3=C(\C#N)C(N)=O has inhibition at 200 µg/mL at least equal to 20%. -1

I'd appreciate it if you could say whether Cc1ccc2c3c([nH]c2c1)C(=C(/C#N)C(N)=O)/C(=C/c1cccs1)CC3 has inhibition at 200 µg/mL at least equal to 20%. -1

I'd appreciate it if you could say whether Cc1ccc2[nH]c3c(c2c1)CCC(=C\c1ccccc1)/C3=C(\C#N)C(N)=O has inhibition at 200 µg/mL at least equal to 20%. 1

---

- Tested on: Bacillus subtilis
- experiment-summary: Antibiofilm activity against tetracycline-resistant Bacillus subtilis assessed as disruption of biofilm at 200 ug/ml after 24 hrs by crystal violet staining based ELISA relative to control
- Format: functional
inhibition at 200 µg/mL by entry:
Quick note: give the figure in %, leave out the unit.

COc1ccc(/C=C2\CCc3c([nH]c4c(C)cccc34)\C2=C(\C#N)C(N)=O)cc1OC ... 31
Cc1ccc2[nH]c3c(c2c1)CCC(=C\c1ccc(F)cc1)/C3=C(\C#N)C(N)=O ... 56
COc1ccc(/C=C2\CCc3c([nH]c4ccc(C)cc34)\C2=C(\C#N)C(N)=O)cc1OC ... 21
COc1ccc(/C=C2\CCc3c([nH]c4cc(C)ccc34)\C2=C(\C#N)C(N)=O)cc1OC ... 32
Cc1ccc2[nH]c3c(c2c1)CCC(=C\c1cccc(Br)c1)/C3=C(\C#N)C(N)=O ... 10

Tell me the measured inhibition at 200 µg/mL of Cc1ccc2[nH]c3c(c2c1)CCC(=C\c1cccs1)/C3=C(\C#N)C(N)=O , please. 28

---

inhibition at 200 µg/mL by entry:
- Tested on: Bacillus subtilis
- experiment-summary: Antibiofilm activity against tetracycline-resistant Bacillus subtilis assessed as disruption of biofilm at 200 ug/ml after 24 hrs by crystal violet staining based ELISA relative to control
- Format: functional
Quick note: give the figure in %, leave out the unit.

Cc1ccc2[nH]c3c(c2c1)CCC(=C\c1ccccn1)/C3=C(\C#N)C(N)=O ... 26
Cc1ccc2[nH]c3c(c2c1)CCC(=C\c1cccc(F)c1)/C3=C(\C#N)C(N)=O ... 10
CCOc1ccc(/C=C2\CCc3c([nH]c4ccc(C)cc34)\C2=C(\C#N)C(N)=O)cc1OCC ... 8
Cc1ccc2[nH]c3c(c2c1)CCC(=C\c1ccccc1)/C3=C(\C#N)C(N)=O ... 23
Cc1ccc2c3c([nH]c2c1)C(=C(/C#N)C(N)=O)/C(=C/c1ccccc1)CC3 ... 45

Tell me the measured inhibition at 200 µg/mL of Cc1cccc2c3c([nH]c12)C(=C(/C#N)C(N)=O)/C(=C/c1ccccc1)CC3 , please. 23

Tell me the measured inhibition at 200 µg/mL of Cc1cccc2c3c([nH]c12)C(=C(/C#N)C(N)=O)/C(=C/c1cccs1)CC3 , please. 12

Tell me the measured inhibition at 200 µg/mL of Cc1ccc2c3c([nH]c2c1)C(=C(/C#N)C(N)=O)/C(=C/c1cccs1)CC3 , please. 21

Tell me the measured inhibition at 200 µg/mL of O=C(O)c1cn(C2CC2)c2cc(N3CCNCC3)c(F)cc2c1=O [CIPROFLOXACIN] , please. 23

Measured values drawn from ChEMBL document CHEMBL4411338 for this set.
